Data provenance: patent KR20130140557A

- measurement.target: T1, IL-6R-Fc 항원 (IL-6R full domain 단백질) (human, UniProt P08887 20-365)
- T1 construct: domain: IL-6R full domain; Expressed transiently in HEK293E and purified from the supernatant; also called IL-6R 항원; not shown: Fc part from expression vector pYK 604
- T1 sequence (looked up): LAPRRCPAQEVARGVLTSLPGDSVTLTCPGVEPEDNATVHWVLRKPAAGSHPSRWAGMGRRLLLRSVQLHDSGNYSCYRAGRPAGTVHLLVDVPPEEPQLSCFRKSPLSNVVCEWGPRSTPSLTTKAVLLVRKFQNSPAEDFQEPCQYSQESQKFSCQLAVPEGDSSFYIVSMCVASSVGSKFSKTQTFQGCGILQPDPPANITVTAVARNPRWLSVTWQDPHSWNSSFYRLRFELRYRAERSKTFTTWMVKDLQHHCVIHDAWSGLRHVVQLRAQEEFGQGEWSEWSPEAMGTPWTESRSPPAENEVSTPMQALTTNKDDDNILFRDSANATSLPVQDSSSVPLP
- protocol.notes: ELISA, coated IL-6R 100 ng/well, anti-Fab-HRP
assay.readout: OD 490 nm at 0.04883 nM antibody (OD490)
Write the value in OD490 as a bare number.

1) 항 IL-6R 단클론 항체 B10 (IgG) (antibody, V domains shown, Phage clone converted to whole IgG) VH: QVQLVESGGGLVQPGGSLRLSCAASGFIFDDYAMFWVRQVPGKGLEWVAGINWNGNGIGYGDSVRGRFIISRDNARNSLDLQMNSLRAEDTAVYYCARPSLYGGNSEFDLWGQGTLVTVSS VL: SQLVLTQPPSVSGAPGQTVTISCTGPTIGAGYDVHWYQQLPGAAPKLLIYGNLNRPSGVPDRFSGSKSGTSASLAITDLQAEDEADYYCHTYDSSLSGSWVFGGGTKLTVL | 0.451
2) 항 IL-6R 단클론 항체 A7 (IgG) (antibody, V domains shown, Phage clone converted to whole IgG) VH: QMQLVESGGGLVQPGTSLRLSCAASGFKFEDYAMHWVRQAPGKGLEWVSGVSWNSGTIAYVDSVKGRFTISRDNAKNSLYLQMNSLRAEDTAVYYCARDFTYFYESSGYYAFDLWGQGTMVTVSS VL: SQLVLTQPPSVSGAPGQRVTISCTGTNSNIGAGYDVHWYQQVPGTTPKLLIYGNTNRPSGVPDRFSGSKSGTSASLAITGLQAEDGGDYYCQSFDSSLTGSVFGTGTKVTVL | 0.498
3) 항 IL-6R 단클론 항체 D2 (IgG) (antibody, V domains shown, Phage clone converted to whole IgG) VH: QVQLVESGAEVKKPGSSVKVSCKGSGDTFPNYAINWVRQAPGQGPEWMGRIIPMLGTSDYAEKFQGRVTITADKSTNTAYMGLNSLRSEDTAVYYCVKGPRYYGTDSYYLEKWGQGTMVTVSS VL: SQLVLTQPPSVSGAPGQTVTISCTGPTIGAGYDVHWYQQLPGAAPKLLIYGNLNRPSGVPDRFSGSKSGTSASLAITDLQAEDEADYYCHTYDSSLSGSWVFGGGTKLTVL | 0.451

Let us examine a further case.
Q: # query: OD 490 nm at 0.04883 nM antibody of entry 항 IL-6R 단클론 항체 F2 (IgG) (antibody, V domains shown, Phage clone converted to whole IgG) VH: QVQLVESGAEVKKPGASVKVSCKASGYTFTNYYMHWVRQAPGQGLEWMGIINPSGGNTGYAQKFQGRVTMTRDMSTSTAYMELSSLRSEDTAVYYCARGLPWGENGLDVWGQGTTVTVSS VL: SQLVLTQPSSVSGAPGQTVTISCTGSSSNIGAGYDVHWYQQLPGTAPKVLIYGDSDRPSGVPDRFSGSKSATSASLAITGLQAEDEADYYCQSYDSSLSAYVFGTGTKVTVL
Result: 0.584
